Molecular target: CYP2E1 (Homo sapiens)
Sequence (P05181 whole entry): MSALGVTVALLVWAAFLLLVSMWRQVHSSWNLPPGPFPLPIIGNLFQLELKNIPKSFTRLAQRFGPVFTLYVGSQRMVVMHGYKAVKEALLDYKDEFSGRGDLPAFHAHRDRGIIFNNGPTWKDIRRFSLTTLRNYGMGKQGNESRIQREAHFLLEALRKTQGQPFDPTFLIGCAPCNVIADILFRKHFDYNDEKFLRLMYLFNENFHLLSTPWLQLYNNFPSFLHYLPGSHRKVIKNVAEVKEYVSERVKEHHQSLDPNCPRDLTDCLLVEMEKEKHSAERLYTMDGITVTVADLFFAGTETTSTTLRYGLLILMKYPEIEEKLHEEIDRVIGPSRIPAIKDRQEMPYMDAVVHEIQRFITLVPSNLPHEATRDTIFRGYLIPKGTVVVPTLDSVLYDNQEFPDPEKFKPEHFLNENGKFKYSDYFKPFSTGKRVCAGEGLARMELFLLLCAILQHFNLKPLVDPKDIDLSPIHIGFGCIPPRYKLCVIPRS
Assay: CYP2E1 inhibition assay
Type: biochemical
Details: CYP2E1 baculosomes, pH 7.4, probe para-nitrophenol (p-NP)
METRIC: inhibition at 1 h (%)

>>> print(df.to_string())
                                   compound  result
0  C=CCOCCN [2‐(prop‐2‐en‐1‐yloxy) ethan‐1‐amine]      71

a. C=CCCCCN [5‐hexen‐1‐amine (5, 1 HA), 5‐hexen‐1‐amine]
b. C=CCOCC(N)=O [2‐prop‐2‐enoxyacetamide (PEXA), 2‐prop‐2‐enoxyacetamide]
Between the entries labelled a and b , which has a larger inhibition at 1 h value on record? // output: label of the selected item
a
(a: 75%, b: 20%)
